Test system: Bacillus subtilis (KCTC 1998)
Assay type: cell-based
condition.info: KCTC 1998, 24 h, pH 7.2
Experimental: Pseudomonas aeruginosa (ATCC 15692), Escherichia coli (ATCC 25922), and Staphylococcus aureus (ATCC 25923) were purchased from the American Type Culture Collection. Listeria monocytogens (KCTC 3710) and Bacillus subtilis (KCTC 1998) were from the Korean Collection for Type Cultures. […] The turbidity of each well was measured at the absorbance at 600 nm and the morphology of bacterial growth was observed under light microscopy. […]
Where no end group is shown, it is not given here.
observation.type: MIC, Bs (µM)
Dear colleague, please return just the value in µM, with no unit written.

Field: example entries. Status: answers known.
Recorded MIC, Bs of KKIWKKWIKI-NH2 [KWI-10] , please.
2

And what about the substance WIKKIWKKIIKEIK-NH2 [WIKE-14] ?
2

***
Entry under review: WIKKIWKKIK-NH2 [WIK-10] . Reported MIC, Bs?
2

Follow-up entry: RRIIRRIWRW-NH2 [RIW-10]
2

Also RRIWRRWIRI-NH2 [RWI-10] ?
1

Follow-up item: KKIIKKIIKKIWKW-NH2 [KIW-14]
1

// same read-out, input: KKIWKKWIKKIIKI-NH2 [KWI-14]
1

Then what about the substance KKIIKKIWKW-NH2 [KIW-10] ?
4

---

Test system: Escherichia coli (ATCC 25922)
Type: cell-based
condition.info: ATCC 25922, 24 h, pH 7.2
Where no end group is shown, it is not given here.
observation.type: MIC, Ec (numbers in parentheses) (µM)
The reply should contain only the number, in µM.

Please look up its MIC, Ec (numbers in parentheses): WIRRIWRRIR-NH2 [WIR-10]
4

Also RRIIRRIWRW-NH2 [RIW-10] ?
16

Same lookup for WIKKIWKKIK-NH2 [WIK-10] , please.
32

Now give it for RRIWRRWIRI-NH2 [RWI-10] too.
4

// same read-out, input: KKIWKKWIKI-NH2 [KWI-10]
64

Please give the result for KKIIKKIWKW-NH2 [KIW-10] too.
64

Record: WIKKIWKKIIKEIK-NH2 [WIKE-14]
64

---

Test system: Escherichia coli (ATCC 25922)
Type: cell-based
condition.info: ATCC 25922, 24 h, pH 7.2
Where no end group is shown, it is not given here.
observation.type: MIC, Ec (µM)
Number only, in µM; omit the unit.

Look over these answered cases.
Please look up its MIC, Ec: WIKKIWKKIIKEIK-NH2 [WIKE-14]
4

Let us now turn to KKIWKKWIKI-NH2 [KWI-10]
8

Now the same for WIRRIWRRIR-NH2 [WIR-10]
2

Also RRIIRRIWRW-NH2 [RIW-10] ?
8

Would you kindly repeat that for RRIWRRWIRI-NH2 [RWI-10] ?
2

More entries:
I have this substance here, KKIIKKIWKW-NH2 [KIW-10] , and I need its recorded MIC, Ec.
8

Same thing, different substance: WIKKIWKKIK-NH2 [WIK-10]
8

---

Each entry below lists one item and its recorded MIC, Lm value.
Test system: Listeria monocytogenes (KCTC 3710)
Assay type: cell-based
condition.info: KCTC 3710, 24 h, pH 7.2
Where no end group is shown, it is not given here.
Give the value in µM but do not write µM after it.

What measured MIC, Lm goes with KKIIKKIWKW-NH2 [KIW-10] ?
4

What do you get for KKIWKKWIKKIIKI-NH2 [KWI-14] ?
0.5

For KKIIKKIIKKIWKW-NH2 [KIW-14] then?
0.5

---
If you can, please state the reported MIC, Lm value of RRIWRRWIRI-NH2 [RWI-10] .
2

What do we get for WIKKIWKKIK-NH2 [WIK-10] ?
2

# iterate: WIKKIWKKIIKEIK-NH2 [WIKE-14]
4

Now the substance RRIIRRIWRW-NH2 [RIW-10]
2

And then WIKKIWKKIIKKIK-NH2 [WIK-14] , what is it?
0.5

Note, next up: KKIWKKWIKI-NH2 [KWI-10]
2

---

Test system: Escherichia coli (ATCC 25922)
Assay type: cell-based
condition.info: ATCC 25922, 24 h, pH 7.2
Where no end group is shown, it is not given here.
observation.type: MIC, Ec (numbers in parentheses)

Before answering, review these 2 worked examples.
Fill in the blank: the reported MIC, Ec (numbers in parentheses) of KKIIKKIIKKIWKW-NH2 [KIW-14] is ____.
4(4) μM

Likewise for KKIWKKWIKKIIKI-NH2 [KWI-14] ?
4(4) μM

Further cases:
# lookup: MIC, Ec (numbers in parentheses) of WIKKIWKKIIKKIK-NH2 [WIK-14]
4(4) μM

---

Recorded measurements of MIC, Ec, one per entry
Test system: Escherichia coli (ATCC 25922)
Format: cell-based
condition.info: ATCC 25922, 24 h, pH 7.2
Procedure: Pseudomonas aeruginosa (ATCC 15692), Escherichia coli (ATCC 25922), and Staphylococcus aureus (ATCC 25923) were purchased from the American Type Culture Collection. Listeria monocytogens (KCTC 3710) and Bacillus subtilis (KCTC 1998) were from the Korean Collection for Type Cultures. […] The turbidity of each well was measured at the absorbance at 600 nm and the morphology of bacterial growth was observed under light microscopy. […]
Where no end group is shown, it is not given here.

Solved entries (count: 2):
Can you share its MIC, Ec? I mean this substance: KKIIKKIIKKIWKW-NH2 [KIW-14]
4(4) μM

Could you do the same for KKIWKKWIKKIIKI-NH2 [KWI-14] , please?
4(4) μM

Next:
Look up MIC, Ec: WIKKIWKKIIKKIK-NH2 [WIK-14]
4(4) μM
